- Test system: SEM cells
- measurement protocol: cell viability relative to DMSO control; higher = less cytotoxic
- conditions used: RPMI 5 mM glucose + 10% dialyzed FBS; 48 h; 0.569 µM
Parameter cell viability: see the listing below.
Number in %, nothing else.

Reference set, count: 2
CN(C)C(=O)[C@H](O)[C@H](Cc1ccccc1)NC(=O)c1cc2cc(Cl)ccc2[nH]1    105
CO[C@H]1C[C@@H]2CC[C@@H](C)[C@@](O)(O2)C(=O)C(=O)N2CCCC[C@H]2C(=O)O[C@H]([C@@H](C)C[C@@H]2CC[C@@H](O)[C@H](OC)C2)CC(=O)[C@H](C)/C=C(\C)[C@@H](O)[C@@H](OC)C(=O)[C@H](C)C[C@H](C)/C=C/C=C/C=C/1C    85.5

# input for lookup
So, OC1=C(Cl)C=C(N\C2=C(\C(=O)NC2=O)C3=C(C=CC=C3)[N+]([O-])=O)C=C1 ? Its cell viability was 116

----------
- Test system: P12-Ichikawa
- measurement protocol: cell viability relative to DMSO control; higher = less cytotoxic
- conditions used: HPLM + 10% dialyzed FBS; 48 h; 0.569 µM
readout type: cell viability (%)
Number in %, nothing else.

Reference set, count: 3
Cc1nnc(C(=O)NC(C)(C)c2nc(C(=O)NCc3ccc(F)cc3)c(O)c(=O)n2C)o1    109
Cc1nc(-c2ccc(-c3ccc(C(=O)N4CCc5cc6c(cc54)C4(CCN(C)CC4)CO6)cc3)c(C)c2)no1    121
CCN1\C=C(C(O)=O)/C(=O)C2=C1C(=C(N3CCNC(C)C3)C(=C2)F)F (stereo not drawn)    119

# input for lookup
So, CCC(=O)O[C@@]1(CC[C@H]2[C@@H]3CCC/4=C/C(=O)CC[C@]4(C)[C@H]3CC[C@]12C)C(=O)CO ? Its cell viability was 125

----------
- System: NOMO1
- measurement protocol: cell viability relative to DMSO control; higher = less cytotoxic
- conditions used: RPMI 5 mM glucose + 10% dialyzed FBS; 48 h; 0.19 µM
readout type: cell viability (%)
Number in %, nothing else.

Reference set, count: 8
COc1cc(C[C@@H](CO)[C@H](CO)Cc2ccc(O)c(OC)c2)ccc1O    110
CC1(C)[C@@H](O)CC[C@@]2(C)[C@H]1CC[C@]3(C)[C@@H]2C(=O)\C=C/4[C@@H]5C[C@](C)(CC[C@]5(C)CC[C@@]34C)C(O)=O    103
CC1(C)CCC(C)(C)c2cc(NC(=O)c3ccc(C(=O)O)cc3)ccc21    90.2
COc1cc2c(cc1O)CCC1C2CC[C@@]2(C)C1CC[C@@H]2O (some centres undefined)    115
CCC(=O)N1CCN(CC1)C2=C(C=C(C=C2)N3C(=O)\C=C/C4=C3C5=CC(=CC=C5N=C4)C6=CN=C7C=CC=CC7=C6)C(F)(F)F    77.6
c1cc2c(cc1[C@H]1OC[C@H]3[C@@H]1CO[C@@H]3c1ccc3c(c1)OCO3)OCO2    137
CCn1c(C(=O)N(C2CC2)C2CC2)cc2c3c(ncn3C)c(Nc3cc(C)n(C)n3)nc21    111
Cc1nnc(C(=O)NC(C)(C)c2nc(C(=O)NCc3ccc(F)cc3)c(O)c(=O)n2C)o1    96.6

So, Clc1ccc(C(c2ccccc2Cl)C(Cl)Cl)cc1 (centres undefined) ? Its cell viability was 109

So, Cc1ccc(C(=O)Nc2ccc([S+](=O)([O-])O)c3cc([S+](=O)([O-])O)cc([S+](=O)([O-])O)c23)cc1NC(=O)c1cccc(NC(=O)Nc2cccc(C(=O)Nc3cc(C(=O)Nc4ccc([S+](=O)([O-])O)c5cc([S+](=O)([O-])O)cc([S+](=O)([O-])O)c45)ccc3C)c2)c1 ? Its cell viability was 85.8

So, CC[C@H]1OC(=O)[C@H](C)[C@@H](O[C@H]2C[C@@](C)(OC)[C@@H](O)[C@H](C)O2)[C@H](C)[C@@H](O[C@@H]2O[C@H](C)C[C@H](N(C)C)[C@H]2O)[C@](C)(O)C[C@@H](C)/C(=N\OCOCCOC)[C@H](C)[C@@H](O)[C@]1(C)O ? Its cell viability was 69.5

So, O=C1\C=C(OC2=C(C=CC=C12)C3=CC=CC4=C3SC5=C4C=CC=C5)\N6CCOCC6 ? Its cell viability was 129

So, CCOc1ccccc1N/N=C1/C(=O)N(c2nc(-c3ccccc3)cs2)N=C1C ? Its cell viability was 102

So, CN(C[C@@H]1COCCO1)[S+]([O-])(=O)NC2=CC3=C(C=C2)\C=C/C4=C(C=C(C=N4)C5=C[N](C)N=C5)C3=O ? Its cell viability was 91.9
